# log10 Ki per entry for rat A2A (rA2A) ARs (Rattus norvegicus, UniProt P30543)
Note: values are log10 of Ki expressed in nM.

compound="CCCn1c(NCCc2ccc(O)c(O)c2)nc2c1c(=O)n(C)c(=O)n2C [Compound 11c]" testsystem="rat A2A (rA2A) ARs (Rattus norvegicus, UniProt P30543)" quantitativereadout=3.67
compound=CCCCn1c(=O)c2c(nc(NCCc3ccc(O)c(O)c3)n2CCC)n(CCCC)c1=O testsystem="rat A2A (rA2A) ARs (Rattus norvegicus, UniProt P30543)" quantitativereadout=3.12
compound="CCCCCn1c(NCCc2ccc(O)c(O)c2)nc2c1c(=O)n(C)c(=O)n2C [Compound 11h]" testsystem="rat A2A (rA2A) ARs (Rattus norvegicus, UniProt P30543)" quantitativereadout=3.35
compound="CCC(C)n1c(NCCc2ccc(O)c(O)c2)nc2c1c(=O)n(C)c(=O)n2C (centres unmarked) [Compound 11g]" testsystem="rat A2A (rA2A) ARs (Rattus norvegicus, UniProt P30543)" quantitativereadout=3.95
compound="Cn1c(=O)c2c(nc(NCCc3ccc(O)c(O)c3)n2C)n(C)c1=O [Compound 11a]" testsystem="rat A2A (rA2A) ARs (Rattus norvegicus, UniProt P30543)" quantitativereadout=2.57
compound="CCCCn1c(NCCc2ccc(O)c(O)c2)nc2c1c(=O)n(C)c(=O)n2C [Compound 11e]" testsystem="rat A2A (rA2A) ARs (Rattus norvegicus, UniProt P30543)" quantitativereadout=3.23
compound=CCCn1c(=O)c2c(nc(NCCc3ccc(O)c(O)c3)n2CCC)n(CCC)c1=O testsystem="rat A2A (rA2A) ARs (Rattus norvegicus, UniProt P30543)" quantitativereadout=2.92

Next compound, log10 Ki to be filled in.
Prompt: What reported log10 Ki corresponds to Cn1c(=O)c2c(nc3n2CCCN3CCc2ccc(O)c(O)c2)n(C)c1=O [Compound 20a] on rat A2A (rA2A) ARs (Rattus norvegicus, UniProt P30543)?
Response: 2.71

====

# testSystem: human dopamine D2L receptors (Homo sapiens, UniProt P14416)
# Sequence (P14416 whole entry): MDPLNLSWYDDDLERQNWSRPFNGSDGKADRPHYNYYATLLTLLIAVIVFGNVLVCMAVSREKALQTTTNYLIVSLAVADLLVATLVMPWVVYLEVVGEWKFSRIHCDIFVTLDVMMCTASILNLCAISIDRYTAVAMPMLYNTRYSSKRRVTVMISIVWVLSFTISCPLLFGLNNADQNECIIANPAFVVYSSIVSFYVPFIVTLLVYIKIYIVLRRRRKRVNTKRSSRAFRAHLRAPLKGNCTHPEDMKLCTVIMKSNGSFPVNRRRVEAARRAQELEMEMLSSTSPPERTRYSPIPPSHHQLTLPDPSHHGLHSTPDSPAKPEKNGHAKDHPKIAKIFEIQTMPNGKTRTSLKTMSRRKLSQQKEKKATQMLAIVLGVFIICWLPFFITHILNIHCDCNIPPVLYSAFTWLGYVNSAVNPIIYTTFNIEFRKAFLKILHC
# testName: cAMP accumulation assay in forskolin-stimulated HEK293 cells expressing hD2R
# conditionContext: forskolin-stimulated HEK293 cells, human D2L; read-out: EC50, functional cAMP assay
recordedEndpoint: EC50
Could you kindly put the unit after your number?

Prompt: What does the record list as EC50 for "CCCCn1c(=O)c2c(nc(NCCc3ccc(O)c(O)c3)n2CCC)n(CCCC)c1=O" ?
Response: 11.3 µM

====

Recorded measurements of Ki, one per entry
# testSystem: rat A2A (rA2A) ARs (Rattus norvegicus, UniProt P30543)
# Sequence (P30543 whole entry): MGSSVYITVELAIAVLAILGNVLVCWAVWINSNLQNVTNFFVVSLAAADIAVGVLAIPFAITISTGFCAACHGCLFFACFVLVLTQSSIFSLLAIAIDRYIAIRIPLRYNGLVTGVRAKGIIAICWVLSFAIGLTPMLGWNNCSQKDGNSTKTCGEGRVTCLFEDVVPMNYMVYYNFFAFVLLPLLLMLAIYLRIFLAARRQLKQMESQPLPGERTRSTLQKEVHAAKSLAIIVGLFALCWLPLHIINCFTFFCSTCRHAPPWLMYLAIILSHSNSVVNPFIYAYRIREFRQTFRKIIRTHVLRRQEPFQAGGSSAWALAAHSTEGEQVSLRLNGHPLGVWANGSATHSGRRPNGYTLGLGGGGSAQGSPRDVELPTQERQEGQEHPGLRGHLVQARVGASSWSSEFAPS
Give the value, in units of nM, as a plain number.

Here's what some known entries look like.
compound="CCn1c(NCCc2ccc(O)c(O)c2)nc2c1c(=O)n(C)c(=O)n2C [Compound 11b]" quantitativereadout=672
compound="Cn1c(=O)c2c(nc(NCCc3ccc(O)c(O)c3)n2Cc2ccccc2)n(C)c1=O [Compound 11j]" quantitativereadout=3600

Prompt: Quick check: Ki of Cn1c(=O)c2c(nc(NCCc3ccc(O)c(O)c3)n2CCOc2ccccc2)n(C)c1=O [Compound 11l] ?
Response: 1380

Prompt: Try this compound too: CC(C)Cn1c(NCCc2ccc(O)c(O)c2)nc2c1c(=O)n(C)c(=O)n2C [Compound 11f]
Response: 6860

Prompt: Field entry: Cn1c(=O)c2c(nc3n2CCCCN3CCc2ccc(O)c(O)c2)n(C)c1=O [Compound 20b]
Response: 234

Prompt: What about this compound? CC(C)n1c(NCCc2ccc(O)c(O)c2)nc2c1c(=O)n(C)c(=O)n2C [Compound 11d]
Response: 1150
